Assay: Metabolic stability in human liver microsomes at 1 uM after 20 to 30 mins by LC/MS/MS analysis in presence of NADPH
Assay type: ADME, Microsome
Conditions: read-out: Stability
readout: remaining at 1 µM (%)

| molecule | readout | result_number |
| --- | --- | --- |
| CC(C)N1CCc2nc(C(=O)Nc3cc(C(=O)O)ccc3CCC(=O)Nc3ccc(Br)cc3)sc2C1 | remaining at 1 µM | 88 |
| CC(C)N1CCc2nc(C(=O)Nc3c(CNC(=O)c4ccc(Cl)s4)cccc3C(=O)O)sc2C1 | remaining at 1 µM | 96 |
| CNC(=O)c1cccc(CNC(=O)c2ccc(Cl)s2)c1NC(=O)c1nc2c(s1)CN(C)CC2 | remaining at 1 µM | 80 |
| CC(CF)N1CCc2nc(C(=O)Nc3cc(C(=O)O)ccc3CNC(=O)c3ccc(Cl)s3)sc2C1 (stereo not drawn) | remaining at 1 µM | 94 |
| CC(C)N1CCc2nc(C(=O)Nc3cc(C(=O)O)cc(C(F)(F)F)c3CCC(=O)Nc3ccc(Cl)cc3)sc2C1 | remaining at 1 µM | 77 |

a: CC(C)N1CCc2nc(C(=O)Nc3cc(C(=O)O)ccc3CCC(=O)Nc3ccc(Cl)cn3)sc2C1
b: CN1CCc2nc(C(=O)Nc3cc(C(=O)N(C)C)ccc3CNC(=O)c3ccc(Cl)s3)sc2C1
Challenge: Higher remaining at 1 µM between a and b ? Return value: the label identifying the chosen record.
Response given: a

###

Experiment: Solubility of the compound in Japanese pharmacopoeia second fluid at pH 6.8 at 10 mM after 12 hrs
Format: physicochemical
readout: solubility at 12 h, 10000 µM (µg/mL)

| smiles_record | solubility at 12 h, 10000 µM [µg/mL] |
| --- | --- |
| CC(C)Oc1cc(C(=O)O)cc(NC(=O)c2nc3c(s2)CN(C(C)C)CC3)c1CCC(=O)Nc1ccc(Cl)cc1 | 130 |

I: CC(C)N1CCc2nc(C(=O)Nc3cc(C(=O)O)ccc3CCC(=O)Nc3ccc(Cl)cc3)sc2C1
II: CN1CCc2nc(C(=O)Nc3ccc(C(=O)O)cc3CNC(=O)c3ccc(Cl)s3)sc2C1
Challenge: Given the listed items, does I or II have the lesser reported solubility at 12 h, 10000 µM? Return value: the label identifying the chosen record.
Response given: II
(II: 13 µg/mL, I: 720 µg/mL)

###

Test: 1-Octanol-phosphate buffered saline distribution coefficient, log D of the compound at pH 7.4 after 30 mins by shake flask method
Assay type: physicochemical
readout: logD at 0.5 h

Here is how some compounds turned out for logD at 0.5 h.
| compound | logD at 0.5 h |
| --- | --- |
| CC(C)Oc1cc(C(=O)O)cc(NC(=O)c2nc3c(s2)CN(C(C)C)CC3)c1CCC(=O)Nc1ccc(Cl)cc1 | 1.91 |
| CC(C)N1CCc2nc(C(=O)Nc3cc(C(=O)O)cc(F)c3CCC(=O)Nc3ccc(Cl)cc3)sc2C1 | 1.1 |
| CN1CCc2nc(C(=O)Nc3cc(C(=O)O)ccc3CCC(=O)Nc3ccc(Cl)cc3)sc2C1 | 0.27 |
| COCC(C)N1CCc2nc(C(=O)Nc3cc(C(=O)O)ccc3CNC(=O)c3ccc(Cl)s3)sc2C1 (stereo not drawn) | 0.41 |
| CC(C)N1CCc2nc(C(=O)Nc3cc(C(=O)O)ccc3CNC(=O)c3ccc(Cl)s3)sc2C1 | 0.57 |
| O=C(O)c1ccc(CNC(=O)c2ccc(Cl)s2)c(NC(=O)c2nc3c(s2)COCC3)c1 | 0.02 |

a: CC(C)N1CCc2nc(C(=O)Nc3cc(C(=O)O)ccc3CCC(=O)Nc3ccc(Cl)cc3)sc2C1
b: CC(C)N1CCc2nc(C(=O)Nc3cc(C(=O)O)cc(C(F)(F)F)c3CCC(=O)Nc3ccc(Cl)cc3)sc2C1
Challenge: Higher logD at 0.5 h between a and b ? Return value: the label identifying the chosen record.
Response given: b

###

Assay: Drug level in monkey serum at 1 mg/kg, po at 24 hrs by LC-MS/MS analysis
Format: ADME, organism-based, Macaca mulatta
Set-up: dose 1 mg/kg, route oral
Conditions: rhesus monkey, read-out: Drug uptake
readout: concentration at 24 h (ng/mL)

Here is how some molecules turned out for concentration at 24 h.
| smiles_record | units_of_measure | result_number |
| --- | --- | --- |
| CC(C)N1CCc2nc(C(=O)Nc3c(CNC(=O)c4ccc(Cl)s4)cccc3C(=O)O)sc2C1.Cl | ng/mL | 2 |
| CN1CCc2nc(C(=O)Nc3ccccc3CNC(=O)c3ccc(Cl)s3)sc2C1.Cl | ng/mL | 0.6 |

I: CC(C)N1CCc2nc(C(=O)Nc3cc(C(=O)O)ccc3CCC(=O)Nc3ccc(Cl)cn3)sc2C1.Cl
II: CN1CCc2nc(C(=O)Nc3cc(C(=O)O)ccc3CNC(=O)c3ccc(Cl)s3)sc2C1.Cl
Challenge: Higher concentration at 24 h between I and II ? Return value: the label identifying the chosen record.
Response given: I
(I: 9.5 ng/mL, II: 4 ng/mL)

###

Experiment: Solubility of the compound in Japanese pharmacopoeia second fluid at pH 6.8 at 10 mM after 12 hrs
Format: physicochemical
readout: solubility at 12 h, 10000 µM (µg/mL)

Here is how some compounds turned out for solubility at 12 h, 10000 µM.
| compound | units_of_measure | solubility at 12 h, 10000 µM |
| --- | --- | --- |
| CN1CCc2nc(C(=O)Nc3cc(-c4nnn[nH]4)ccc3CNC(=O)c3ccc(Cl)s3)sc2C1 | µg/mL | 470 |
| O=C(O)c1ccc(CNC(=O)c2ccc(Cl)s2)c(NC(=O)c2nc3c(s2)CN(C(CF)CF)CC3)c1 | µg/mL | 870 |
| COC(=O)c1ccc(CNC(=O)c2ccc(Cl)s2)c(NC(=O)c2nc3c(s2)CN(C)CC3)c1 | µg/mL | 52 |
| CC(C)N1CCc2nc(C(=O)Nc3cc(C(=O)O)ccc3CCC(=O)Nc3ccc(F)cc3)sc2C1 | µg/mL | 140 |

P: CN1CCc2nc(C(=O)Nc3c(CNC(=O)c4ccc(Cl)s4)cccc3C(N)=O)sc2C1
Q: CC(C)N1CCc2nc(C(=O)Nc3cc(C(=O)O)ccc3CCC(=O)Nc3ccc(Cl)cn3)sc2C1
R: CC(C)N1CCc2nc(C(=O)Nc3cc(C(=O)O)cc(C(F)(F)F)c3CCC(=O)Nc3ccc(Cl)cc3)sc2C1
Challenge: Sort these compounds on solubility at 12 h, 10000 µM so the largest reading comes first. In plain terms: list the labels in the order you were asked to.
Response given: P, R, Q

A: CN1CCc2nc(C(=O)Nc3cc(C(=O)NS(C)(=O)=O)ccc3CNC(=O)c3ccc(Cl)s3)sc2C1
B: CC(C)N1CCc2nc(C(=O)Nc3cc(C(=O)O)cc(Cl)c3CCC(=O)Nc3ccc(Cl)cc3)sc2C1
Challenge: Given the listed items, does A or B have the lesser reported solubility at 12 h, 10000 µM? Return value: the label identifying the chosen record.
Response given: B

P: CC(C)N1CCc2nc(C(=O)Nc3c(CCC(=O)Nc4ccc(Cl)cc4)cccc3C(=O)O)sc2C1
Q: COc1cc(C(=O)O)cc(NC(=O)c2nc3c(s2)CN(C(C)C)CC3)c1CCC(=O)Nc1ccc(Cl)cc1
Challenge: Higher solubility at 12 h, 10000 µM between P and Q ? Return value: the label identifying the chosen record.
Response given: P
(P: 830 µg/mL, Q: 39 µg/mL)

A: CN1CCc2nc(C(=O)Nc3c(CNC(=O)c4ccc(Cl)s4)cccc3C(=O)N(C)C)sc2C1
B: CNC(=O)c1ccc(CNC(=O)c2ccc(Cl)s2)c(NC(=O)c2nc3c(s2)CN(C)CC3)c1
Challenge: Given the listed items, does A or B have the lesser reported solubility at 12 h, 10000 µM? Return value: the label identifying the chosen record.
Response given: B

###

Test: 1-Octanol-phosphate buffered saline distribution coefficient, log D of the compound at pH 7.4 after 30 mins by shake flask method
Format: physicochemical
readout: logD at 0.5 h

| smiles_record | result_number |
| --- | --- |
| CN1CCc2nc(C(=O)Nc3cc(C(=O)O)ccc3CCC(=O)Nc3ccc(Cl)cn3)sc2C1 | -0.28 |
| CC(C)N1CCc2nc(C(=O)Nc3cc(C(=O)O)ccc3CCC(=O)Nc3ccc(Br)cc3)sc2C1 | 1.08 |
| CN1CCc2nc(C(=O)Nc3cc(C(=O)O)ccc3CNC(=O)c3ccc(Cl)s3)sc2C1 | -0.29 |

P: CC(C)N1CCc2nc(C(=O)Nc3cc(C(=O)O)cc(Cl)c3CCC(=O)Nc3ccc(Cl)cc3)sc2C1
Q: CN1CCc2nc(C(=O)Nc3c(CNC(=O)c4ccc(Cl)s4)cccc3C(=O)O)sc2C1
Challenge: Higher logD at 0.5 h between P and Q ? Return value: the label identifying the chosen record.
Response given: P
(P: 1.61, Q: -0.38)
